Form field: log10(IC50) (one value per entry).
Molecular target: human NaPi-IIb (Homo sapiens)
Construct: expressed in transfected cells
Sequence (O95436 whole entry): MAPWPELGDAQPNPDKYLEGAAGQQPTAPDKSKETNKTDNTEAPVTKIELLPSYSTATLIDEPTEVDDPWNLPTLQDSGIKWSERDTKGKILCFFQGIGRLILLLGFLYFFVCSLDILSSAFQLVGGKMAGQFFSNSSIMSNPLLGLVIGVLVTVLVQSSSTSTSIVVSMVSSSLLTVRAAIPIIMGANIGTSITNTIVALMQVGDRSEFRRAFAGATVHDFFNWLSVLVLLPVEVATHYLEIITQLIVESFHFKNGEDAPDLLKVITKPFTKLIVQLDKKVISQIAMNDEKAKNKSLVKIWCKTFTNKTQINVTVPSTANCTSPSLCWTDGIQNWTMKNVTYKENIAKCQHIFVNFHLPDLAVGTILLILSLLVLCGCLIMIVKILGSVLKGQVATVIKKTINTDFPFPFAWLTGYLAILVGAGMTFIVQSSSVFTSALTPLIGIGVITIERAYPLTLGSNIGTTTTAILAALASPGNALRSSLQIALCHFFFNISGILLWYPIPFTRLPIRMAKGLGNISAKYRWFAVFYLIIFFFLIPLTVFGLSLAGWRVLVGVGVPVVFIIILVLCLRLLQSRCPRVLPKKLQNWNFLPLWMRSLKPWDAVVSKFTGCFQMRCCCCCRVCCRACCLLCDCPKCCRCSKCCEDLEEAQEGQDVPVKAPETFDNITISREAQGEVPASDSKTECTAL
Assay: Inhibitory effect on 33PO4 uptake into human NaPi-IIb-expressing CHO cells
Format: cell-based
Conditions: read-out: IC50
Give log10 of IC50, with IC50 taken in µM.

// known answers, use as guide
CN1N(Cc2cccc(F)c2F)C(=O)C(C(=O)Nc2cc(C(F)(F)F)ccc2-c2ccc(C(F)(F)F)nc2)=C(O)C1(C)C
0.66
C[C@]12CCCN1N(Cc1cccc(F)c1F)C(=O)C(C(=O)Nc1ccc(C(F)(F)F)cc1-c1cnc(Cl)nc1)=C2O
0.30
C[C@]12CCCN1N(Cc1ccc(F)c(Br)c1)C(=O)C(C(=O)Nc1cc(F)c(Br)c(F)c1)=C2O
0.86
CN1N(Cc2cccc(F)c2F)C(=O)C(C(=O)Nc2ccc(C(F)(F)F)cc2-c2cc(C(F)(F)F)ncn2)=C(O)C12CCCC2
0.81
COC(=O)c1cc(-c2cc(C(F)(F)F)ccc2NC(=O)C2=C(O)[C@@]3(C)CCCN3N(Cc3cccc(F)c3F)C2=O)nc(Cl)n1
1.03
CN1[C@@H](C(C)(C)C)C(O)=C(C(=O)Nc2ccc(C(F)(F)F)cc2-c2ccc(C(F)(F)F)nc2)C(=O)N1Cc1cccc(F)c1F
0.93
CN1N(Cc2ccc(OCCCCCCC(=O)O)c(F)c2F)C(=O)C(C(=O)Nc2ccc(C(F)(F)F)cc2-c2cc(C(F)(F)F)ncn2)=C(O)C12CCCC2
0.94
CC(C)[C@H]1C(O)=C(C(=O)Nc2ccc(Cl)cc2-c2ccc(C(F)(F)F)nc2)C(=O)N(Cc2ccc(OCCN3CCOCC3)c(F)c2F)N1C
1.27

// query Recorded log10(IC50) for "CN1N(Cc2ccc(OCCN3CCOCC3)c(F)c2F)C(=O)C(C(=O)Nc2ccc(C(F)(F)F)cc2-c2ccc(C(F)(F)F)nc2)=C(O)C1(C)C" with human NaPi-IIb (Homo sapiens), please?
// result 1.07

// query Recorded log10(IC50) for "C[C@]12CCCN1N(Cc1cccc(F)c1F)C(=O)C(C(=O)Nc1ccc(C(F)(F)F)cc1-c1ncnc(C#N)c1Cl)=C2O" with human NaPi-IIb (Homo sapiens), please?
// result 0.84

// query Recorded log10(IC50) for "CN1[C@@H](C(C)(C)C)C(O)=C(C(=O)Nc2ccc(Cl)cc2-c2ccc(C(F)(F)F)nc2)C(=O)N1Cc1cccc(F)c1F" with human NaPi-IIb (Homo sapiens), please?
// result 0.93

// query Recorded log10(IC50) for "CN1N(Cc2ccc(OCCN3CCOCC3)c(F)c2F)C(=O)C(C(=O)Nc2ccc(C(F)(F)F)cc2-c2cc(C(F)(F)F)ncn2)=C(O)C12CCCC2" with human NaPi-IIb (Homo sapiens), please?
// result 0.93

// query Recorded log10(IC50) for "C[C@]12CCCN1N(Cc1c(F)cc(C#CC3(O)CCCC3)cc1F)C(=O)C(C(=O)Nc1ccc(C(F)(F)F)cc1-c1ccc(C(F)(F)F)nc1)=C2O" with human NaPi-IIb (Homo sapiens), please?
// result 0.95

// query Recorded log10(IC50) for "C[C@]12CCCN1N(Cc1cccc(F)c1Br)C(=O)C(C(=O)Nc1ccc(Br)c(C#N)c1)=C2O" with human NaPi-IIb (Homo sapiens), please?
// result 0.81

// query Recorded log10(IC50) for "COCCN(C)CCOc1ccc(CN2C(=O)C(C(=O)Nc3ccc(C(F)(F)F)cc3-c3cc(C(F)(F)F)ncn3)=C(O)C3(CCC3)N2C)c(F)c1F" with human NaPi-IIb (Homo sapiens), please?
// result 0.86
